# system under test: EGFR T790M/L858R (NCI-H1975 cells) (Homo sapiens, UniProt P00533, L858R/T790M)
# Construct: NCI-H1975 (harboring EGFR heterozygous T790M/L858R mutations); host or cells: NCI-H1975
# Sequence (P00533 25-1210 T790M/L858R): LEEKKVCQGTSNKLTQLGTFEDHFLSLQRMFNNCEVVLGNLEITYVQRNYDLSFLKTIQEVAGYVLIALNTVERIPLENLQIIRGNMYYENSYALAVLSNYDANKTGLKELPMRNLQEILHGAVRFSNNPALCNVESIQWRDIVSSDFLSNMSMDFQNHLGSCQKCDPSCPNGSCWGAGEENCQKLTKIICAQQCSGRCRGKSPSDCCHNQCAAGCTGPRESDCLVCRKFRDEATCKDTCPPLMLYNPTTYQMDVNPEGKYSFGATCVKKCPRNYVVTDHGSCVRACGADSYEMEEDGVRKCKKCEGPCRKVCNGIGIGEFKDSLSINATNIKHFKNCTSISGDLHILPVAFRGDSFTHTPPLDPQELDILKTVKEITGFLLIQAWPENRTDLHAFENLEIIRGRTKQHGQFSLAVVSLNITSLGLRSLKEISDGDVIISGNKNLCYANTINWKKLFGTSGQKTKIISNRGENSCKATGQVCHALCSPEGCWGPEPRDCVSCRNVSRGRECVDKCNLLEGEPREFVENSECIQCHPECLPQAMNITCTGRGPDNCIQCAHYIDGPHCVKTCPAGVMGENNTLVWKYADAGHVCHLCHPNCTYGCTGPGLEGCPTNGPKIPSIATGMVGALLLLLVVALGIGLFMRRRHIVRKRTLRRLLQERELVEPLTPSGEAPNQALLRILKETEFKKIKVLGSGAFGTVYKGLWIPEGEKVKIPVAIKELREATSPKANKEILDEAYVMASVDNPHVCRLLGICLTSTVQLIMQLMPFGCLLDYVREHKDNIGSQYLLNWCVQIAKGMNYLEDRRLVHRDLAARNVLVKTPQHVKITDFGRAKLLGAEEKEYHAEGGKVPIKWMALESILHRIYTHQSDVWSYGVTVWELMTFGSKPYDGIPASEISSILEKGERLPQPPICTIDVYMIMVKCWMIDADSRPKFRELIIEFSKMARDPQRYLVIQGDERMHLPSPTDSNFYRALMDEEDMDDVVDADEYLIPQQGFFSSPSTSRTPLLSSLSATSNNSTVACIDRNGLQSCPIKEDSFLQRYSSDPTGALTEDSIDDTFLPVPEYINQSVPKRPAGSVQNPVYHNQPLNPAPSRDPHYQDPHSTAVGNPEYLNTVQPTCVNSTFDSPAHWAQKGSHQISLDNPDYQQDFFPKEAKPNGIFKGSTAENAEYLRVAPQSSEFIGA
# assay protocol: EGFR (L858R) degradation analysis, Total EGFR (L858R) HTRF, NCI-H1975 cells
# Type: cell-based
# stated conditions: 6 hours
# Protocol: NCI-H1975 (harboring EGFR heterozygous T790M/L858R mutations) and NCI-H3255 (harboring EGFR heterozygous L858R mutation) were purchased from ATCC and NCI, respectively. […] Degradation of EGFR protein containing L858R mutation was determined based on quantification of FRET signal using Total EGFR (L858R) HTRF assay kit. […] FRET signal was acquired on EnVision™ Multilabel Reader (PerkinElmer, Santa Clara, CA, USA).
reported metric: DC50 (nM)
// units = nM; emit number, no label

Solved cases below.
molecule	DC50 / nM
O=C1CCC(Nc2ccc(C3CCN(CC(=O)N4CCN(c5ccc(-c6cc(F)c7cn(C(C(=O)Nc8nccs8)c8ncn9c8CCC9)nc7c6)cn5)CC4)CC3)nc2)C(=O)N1 (centres unmarked)	33
O=C1CC[C@H](Nc2ccc(C3CCN(CC(=O)N4CCC(c5ccc(-c6cc(F)c7c(c6)C(=O)N(C(C(=O)Nc6nccs6)c6ncn8c6CCC8)C7)cc5)CC4)CC3)cc2)C(=O)N1 (some centres unmarked)	31
O=C1CC[C@H](Nc2ccc(C3CCN(CC(=O)N4CC[C@@H](Oc5ccc(-c6cc(F)c7c(c6)C(=O)N(C(C(=O)Nc6nccs6)c6ncn8c6CCC8)C7)cc5)C4)CC3)cc2)C(=O)N1 (some centres unmarked)	26
O=C1CCC(Nc2ccc(C3CCN(CC(=O)N4CC5(C4)CN(c4ccc(-c6cc(F)c7c(c6)C(=O)N(C(C(=O)Nc6nccs6)c6ncn8c6CCC8)C7)cc4)C5)CC3(F)F)cc2)C(=O)N1 (single isomer, unassigned)	13

Then there is this molecule:
So what's the measured DC50 for this one? O=C1CC[C@H](Nc2ccc(C3CCN(CC(=O)N4CCC(Oc5ccc(-c6cc(F)c7c(c6)C(=O)N(C(C(=O)Nc6nccs6)c6ncn8c6CCC8)C7)cc5)CC4)CC3)cc2)C(=O)N1 (some centres unmarked)
47
